Test system: Pseudomonas aeruginosa IFO 12689
Assay: in vitro antibacterial activity (minimum inhibitory concentration), standard method of the Japan Chemotherapy Society
Format: cell-based
Conditions: IFO12689, Gram (-), 10^6 cells/ml, read-out: Minimum inhibitory concentration for growth
Answer each item with its documented MIC.

The compound CO/N=C(\C(=O)N[C@@H]1C(=O)N2C(C(=O)O)=C(COC(C)=O)CS[C@H]12)c1csc(N)n1 [CTX, cefotaxime, reference compound] showed MIC equal to 25 µg/mL

The compound `Nc1nc(/C(=N/OCC(=O)O)C(=O)N[C@@H]2C(=O)N3C(C(=O)O)=C(CSc4cc(=O)c5cc(O)c(O)cc5s4)CS[C@H]23)cs1` showed MIC equal to 0.05 µg/mL

The compound `CO/N=C(\C(=O)N[C@@H]1C(=O)N2C(C(=O)O)=C(CSc3cc(=O)c4cc(O)c(O)cc4s3)CS[C@H]12)c1nsc(N)n1` showed MIC equal to 0.05 µg/mL

The compound `CO/N=C(\C(=O)N[C@@H]1C(=O)N2C(C(=O)O)=C(CSc3cc(=O)c4cc(O)c(O)cc4s3)CS[C@H]12)c1csc(N)n1` showed MIC equal to 0.39 µg/mL

The compound `CC(C)(O/N=C(\C(=O)N[C@@H]1C(=O)N2C(C(=O)O)=C(CSc3cc(=O)c4cc(O)c(O)cc4s3)CS[C@H]12)c1csc(N)n1)C(=O)O` showed MIC equal to 0.05 µg/mL

The compound `Nc1nc(/C(=N/OCC(=O)O)C(=O)N[C@@H]2C(=O)N3C(C(=O)O)=C(CSc4sc5cc(O)c(O)cc5c(=O)c4Br)CS[C@H]23)cs1` showed MIC equal to 0.1 µg/mL

====

Answer each item with its documented MIC.
Tested on: S. epidermidis IID 866
Assay: in vitro antibacterial activity (minimum inhibitory concentration), standard method of the Japan Chemotherapy Society
Assay type: cell-based
Settings: Staphylococcus epidermidis, IID866; Gram (+); 10^6 cells/ml; read-out: Minimum inhibitory concentration for growth
Write the answer as a number in µg/mL, unit excluded.

Let me check: CO/N=C(\C(=O)N[C@@H]1C(=O)N2C(C(=O)O)=C(COC(C)=O)CS[C@H]12)c1csc(N)n1 [CTX, cefotaxime, reference compound] , system S. epidermidis IID 866, measured MIC is 0.78

Let me check: `Nc1nc(/C(=N/OCC(=O)O)C(=O)N[C@@H]2C(=O)N3C(C(=O)O)=C(CSc4cc(=O)c5cc(O)c(O)cc5s4)CS[C@H]23)cs1` , system S. epidermidis IID 866, measured MIC is 12.5

Let me check: `Nc1nc(/C(=N/OCC(=O)O)C(=O)N[C@@H]2C(=O)N3C(C(=O)O)=C(CSc4sc5cc(O)c(O)cc5c(=O)c4Br)CS[C@H]23)cs1` , system S. epidermidis IID 866, measured MIC is 12.5

Let me check: `CO/N=C(\C(=O)N[C@@H]1C(=O)N2C(C(=O)O)=C(CSc3cc(=O)c4cc(O)c(O)cc4s3)CS[C@H]12)c1nsc(N)n1` , system S. epidermidis IID 866, measured MIC is 1.56

Let me check: `CC(C)(O/N=C(\C(=O)N[C@@H]1C(=O)N2C(C(=O)O)=C(CSc3cc(=O)c4cc(O)c(O)cc4s3)CS[C@H]12)c1csc(N)n1)C(=O)O` , system S. epidermidis IID 866, measured MIC is 12.5

Let me check: `CO/N=C(\C(=O)N[C@@H]1C(=O)N2C(C(=O)O)=C(CSc3cc(=O)c4cc(O)c(O)cc4s3)CS[C@H]12)c1csc(N)n1` , system S. epidermidis IID 866, measured MIC is 0.78
